// reported Percent Effect for each item listed
target: Proteasome subunit beta (Trypanosoma cruzi) (UniProt O96673); experiment: Trypanosoma cruzi proteasome chymotrypsin-like activity (TcProtChymo) assay.; format: functional; parameters: scale not given: in the data most compounds retested in dose-response had high values; details: 9.37 µM
Sequence (O96673 as listed by the source): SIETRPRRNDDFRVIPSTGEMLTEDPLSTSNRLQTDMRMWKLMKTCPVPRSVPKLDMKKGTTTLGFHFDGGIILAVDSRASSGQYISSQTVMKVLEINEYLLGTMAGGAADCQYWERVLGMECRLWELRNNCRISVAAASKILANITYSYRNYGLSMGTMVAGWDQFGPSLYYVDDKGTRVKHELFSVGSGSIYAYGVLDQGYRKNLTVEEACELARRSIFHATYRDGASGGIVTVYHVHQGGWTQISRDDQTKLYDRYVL
Provide only the numeric value, understood in %.

Take a look at these entries with their results.
- Compound: "Cc1ncsc1C(=O)NC1CCN(Cc2ccc(C#N)cc2)CC1"
  Recorded metric: "Percent Effect"
  Uom: "%"
  Measured number: 5.74
- Compound: "CN(Cc1cc(-c2ccccc2)no1)C1CCCN(c2cccnn2)C1 (centres undefined)"
  Recorded metric: "Percent Effect"
  Uom: "%"
  Measured number: 2.37
- Compound: "Cc1ccc(CNCC2CCc3nnc(C(C)C)n3C2)s1 (centres undefined)"
  Recorded metric: "Percent Effect"
  Uom: "%"
  Measured number: 4.56
- Compound: "Cc1ccc(OCCC(=O)N2CCN(c3cnccn3)CC2)cc1C"
  Recorded metric: "Percent Effect"
  Uom: "%"
  Measured number: 14.9
- Compound: "Cc1csc(C2CCCN(C(=O)c3cnc4n[nH]c(C)c4c3)C2)n1 (centres undefined)"
  Recorded metric: "Percent Effect"
  Uom: "%"
  Measured number: 2.7
- Compound: "Cc1ccc(Cl)cc1N1CCC(CNC(=O)CCn2ccnc2)C1 (centres undefined)"
  Recorded metric: "Percent Effect"
  Uom: "%"
  Measured number: 12.2
- Compound: "NC(=O)Cn1cc(NC(=O)N2CCCC2)cn1"
  Recorded metric: "Percent Effect"
  Uom: "%"
  Measured number: 11.7
- Compound: "Cc1cc(C(=O)NCc2ccnc(N3CCN(C)CC3)c2)c(C)s1"
  Recorded metric: "Percent Effect"
  Uom: "%"
  Measured number: 3.67
- Compound: "CCn1c(C)nnc1CN(C)C1CCN(CCCOC)C1 (centres undefined)"
  Recorded metric: "Percent Effect"
  Uom: "%"
  Measured number: 11.7
- Compound: "COC[C@@H]1CC[C@H]2[C@H](CCN2S(=O)(=O)c2ccc(OC)cc2)O1"
  Recorded metric: "Percent Effect"
  Uom: "%"
  Measured number: 6.09

Item CN(CC1COc2ccccc2O1)C(=O)NCCCn1cncn1 (centres undefined) with Proteasome subunit beta (Trypanosoma cruzi) (UniProt O96673) - Percent Effect?
6.52

Next entry: Cc1nnc(NC(=O)NC2CCOc3ccccc32)s1 (centres undefined)
12.8

And CCc1n[nH]c(C2CN(CC(=O)NCCc3ccsc3)CCO2)n1 (centres undefined) ?
1.42
